Measured melting point, listed per entry.

{"columns": ["molecule", "melting point"],
 "data": [
  ["Cn1cnc(CNC(=O)c2ccnc(N3CCN(Cc4ccc(F)cc4)C3=O)c2)c1", "174 to 176 °C"],
  ["CC[C@H](COC)n1cc(Cl)nc(N2CCc3cc(Cl)cc(Cl)c32)c1=O", "143 to 146 °C"],
  ["N#Cc1ccc(C(N2CCN(c3ncccn3)CC2)N2CCCC2=O)cc1 (stereo not given)", "185 to 188 °C"],
  ["CC(=O)N1CCc2cc(S(=O)(=O)n3c(CCCC(=O)O)cc4nc(Cl)ccc43)ccc21", "226 °C"],
  ["CCCc1c(OCCCOCCCOc2c(C(C)=O)ccc(OCC(=O)O)c2CCC)ccc(C(C)=O)c1O", "86 to 90 °C"]
]}
